- measuredOn: Sphingosine 1-phosphate receptor 1 (Homo sapiens)
- Sequence (P21453 whole entry): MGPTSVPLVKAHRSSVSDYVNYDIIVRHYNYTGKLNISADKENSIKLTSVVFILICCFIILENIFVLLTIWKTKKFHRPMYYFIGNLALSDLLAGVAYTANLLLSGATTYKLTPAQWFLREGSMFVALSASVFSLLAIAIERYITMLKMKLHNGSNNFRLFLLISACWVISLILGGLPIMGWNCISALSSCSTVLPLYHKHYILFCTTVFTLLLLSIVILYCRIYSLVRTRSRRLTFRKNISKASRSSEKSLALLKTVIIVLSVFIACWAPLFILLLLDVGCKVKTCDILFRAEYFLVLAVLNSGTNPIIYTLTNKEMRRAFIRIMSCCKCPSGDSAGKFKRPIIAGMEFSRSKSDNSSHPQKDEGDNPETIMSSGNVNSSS
- assayRemarks: Agonist activity at eGFP-tagged human S1P1 receptor expressed in U2OS cells assessed as receptor internalization after 1 hr by Hoechst dye-based microscopic analysis relative to 1 uM 1-(4-(6-benzylbenzofuran-2-yl)-3-fluorobenzyl)azetidine-3-carboxylic acid
- Assay type: functional, cell-based
quantityKind: Efficacy (%)
Numbers only here, please. The scale is %.

Asked: Returns the measured Efficacy for the input compound. Input: NCCc1ccc(-c2nc3ccc(C4(c5ccccc5)CC4)nc3s2)c(F)c1
Given back: 155

Asked: Now try CN(CCC(=O)O)Cc1ccc(-c2nc3ccc(C4(c5ccccc5)CC4)nc3s2)c(F)c1 .
Given back: 153

Asked: Now try O=C(O)CNCCc1ccc(-c2nc3ccc(C4(c5ccccc5)CC4)nc3s2)c(F)c1 .
Given back: 102

Asked: Now try N[C@@H](CCc1ccc(-c2nc3ccc(C4(c5ccccc5)CC4)nc3s2)c(F)c1)C(=O)O .
Given back: 115

Asked: Now try N[C@H](CC(=O)Nc1ccc(-c2nc3ccc(C4(c5ccccc5)CC4)nc3s2)c(F)c1)C(=O)O .
Given back: 110

Asked: Now try O=C(O)c1ccc(-c2nc3ccc(C4(c5ccccc5)CC4)nc3s2)c(F)c1 .
Given back: 105

Asked: Now try Fc1ccccc1-c1nc2ccc(C3(c4ccccc4)CC3)nc2s1 .
Given back: 98

---

- measuredOn: Sphingosine 1-phosphate receptor 1 (Homo sapiens)
- assayRemarks: Agonist activity at eGFP-tagged human S1P1 receptor expressed in U2OS cells assessed as receptor internalization after 1 hr by Hoechst dye-based microscopic analysis relative to 1 uM 1-(4-(6-benzylbenzofuran-2-yl)-3-fluorobenzyl)azetidine-3-carboxylic acid
- Assay type: functional, cell-based
quantityKind: Efficacy (%)
Numbers only here, please. The scale is %.

Asked: // lookup Efficacy | system=Sphingosine 1-phosphate receptor 1 (Homo sapiens) | key= O=C(O)CCCc1ccc(-c2nc3ccc(C4(c5ccccc5)CC4)nc3s2)c(F)c1
Given back: 100

Asked: Now try N[C@H](CCc1ccc(-c2nc3ccc(C4(c5ccccc5)CC4)nc3s2)c(F)c1)C(=O)O .
Given back: 128

Asked: Now try O=C(O)CNCc1ccc(-c2nc3ccc(C4(c5ccccc5)CC4)nc3s2)c(F)c1 .
Given back: 103

Asked: Now try O=C(O)CCc1ccc(-c2nc3ccc(C4(c5ccccc5)CC4)nc3s2)c(F)c1 .
Given back: 81

Asked: Now try N[C@@H](CC(=O)O)C(=O)Nc1ccc(-c2nc3ccc(C4(c5ccccc5)CC4)nc3s2)c(F)c1 .
Given back: 134

Asked: Now try O=C(O)CCCNc1ccc(-c2nc3ccc(C4(c5ccccc5)CC4)nc3s2)c(F)c1 .
Given back: 113

Asked: Now try N[C@@H](CC(=O)Nc1ccc(-c2nc3ccc(C4(c5ccccc5)CC4)nc3s2)c(F)c1)C(=O)O .
Given back: 102

Asked: Now try NCc1ccc(-c2nc3ccc(C4(c5ccccc5)CC4)nc3s2)c(F)c1 .
Given back: 113

Asked: Now try N[C@H](CC(=O)O)C(=O)Nc1ccc(-c2nc3ccc(C4(c5ccccc5)CC4)nc3s2)c(F)c1 .
Given back: 100

---

- System: Plasma
- assayRemarks: Plasma concentration in Lewis rat at 1 mg/kg, po
- Type: ADME, organism-based
- Parameters: dose 1 mg/kg, route oral
- conditionInfo: in vivo
quantityKind: Cp

Asked: Returns the measured Cp for the input compound. Input: C[C@@](N)(CCc1ccc(-c2nc3ccc(C4(c5ccccc5)CC4)nc3s2)c(F)c1)C(=O)O
Given back: 10 ng/mL

Asked: Now try N[C@H](CC(=O)Nc1ccc(-c2nc3ccc(C4(c5ccccc5)CC4)nc3s2)c(F)c1)C(=O)O .
Given back: 4 ng/mL

Asked: Now try N[C@H](CCc1ccc(-c2nc3ccc(C4(c5ccccc5)CC4)nc3s2)c(F)c1)C(=O)O .
Given back: 5 ng/mL

Asked: Now try C[C@](N)(CCc1ccc(-c2nc3ccc(C4(c5ccccc5)CC4)nc3s2)c(F)c1)C(=O)O .
Given back: 6 ng/mL

Asked: Now try O=C(O)CNCc1ccc(-c2nc3ccc(C4(c5ccccc5)CC4)nc3s2)c(F)c1 .
Given back: 7 ng/mL

Asked: Now try N[C@@H](CCc1ccc(-c2nc3ccc(C4(c5ccccc5)CC4)nc3s2)c(F)c1)C(=O)O .
Given back: 2 ng/mL

Asked: Now try O=C(O)CNCCc1ccc(-c2nc3ccc(C4(c5ccccc5)CC4)nc3s2)c(F)c1 .
Given back: 1 ng/mL

Asked: Now try O=C(O)CCNCc1ccc(-c2nc3ccc(C4(c5ccccc5)CC4)nc3s2)c(F)c1 .
Given back: 12 ng/mL

Asked: Now try N[C@H](CC(=O)O)C(=O)Nc1ccc(-c2nc3ccc(C4(c5ccccc5)CC4)nc3s2)c(F)c1 .
Given back: 2 ng/mL
